Every entry's value here was drawn from paper PMC6001238.

Test system: human T-lymphocyte (CEM) cells
assay summary: Cytostatic activity, CEM cell proliferation
Format: cell-based
experimental conditions: mean ± SD of three experiments; highest concentration tested 250 µM; 3 days; read-out: Toxicity (IC50) CEM
outcome measure: IC50 (µM)
Express your answer in µM, writing the number without its unit.

Input `CN[C@H](CC(C)C)C(=O)N[C@H]1C(=O)N[C@@H](CC(N)=O)C(=O)N[C@H]2C(=O)N[C@H]3C(=O)N[C@H](C(=O)N[C@H](C(=O)NCC(=O)Nc4ccc(NS(=O)(=O)c5ccccc5)cc4)c4cc(O)cc(O)c4-c4cc3ccc4O)[C@H](O)c3ccc(c(Cl)c3)Oc3cc2cc(c3O[C@@H]2O[C@H](CO)[C@@H](O)[C@H](O)[C@H]2O[C@H]2C[C@](C)(N)[C@H](O)[C@H](C)O2)Oc2ccc(cc2Cl)[C@H]1O` . Output IC50: 219
